# System: Leukemia L1210
# METHOD DESCRIPTION: Activity against Leukemia L1210, oral, increase in life span of mice
# Type: in vivo, female mice (BDF1 family)
# RUN CONDITIONS: oral; O.D./ILS30
I would appreciate it if you labelled entries 1 (yes) when Therapeutic ratio TR is 20 or higher, otherwise 0 (no).

Use these answered entries as a reference point.
COC(C)CN(C[C@H]1O[C@H](OC(C)C)[C@H](O)[C@@H](O)[C@@H]1O)C(=O)N(CCCl)N=O (stereo partly shown): 1 (yes)
COCCN(C[C@H]1O[C@H](OC2CCCCC2)[C@H](O)[C@@H](O)[C@@H]1O)C(=O)N(CCCl)N=O: 1 (yes)
COCCOCCO[C@H]1O[C@H](CN(C(=O)N(CCCl)N=O)C(C)(C)C)[C@@H](O)[C@H](O)[C@H]1O: 1 (yes)

## Task Therapeutic ratio TR >= 20 for CCOCCN(C(=O)N(CCCl)N=O)[C@H]1[C@@H](OCC(C)C)O[C@H](CO)[C@H](O)[C@@H]1O ?
## Result 0 (no)

## Task Is it the case that COCCN(C[C@H]1O[C@H](OC2CCCCC2)[C@H](O)[C@@H](O)[C@H]1O)C(=O)N(CCCl)N=O has Therapeutic ratio TR reaching or exceeding 20?
## Result 1 (yes)

## Task Record CC(C)CO[C@H]1O[C@H](CN(CC2CCCO2)C(=O)N(CCCl)N=O)[C@@H](O)[C@@H](O)[C@@H]1O (stereo partly shown) ; criterion: Therapeutic ratio TR no lower than 20. Met?
## Result 1 (yes)

## Task Check the entry CC(C)CN(C[C@H]1O[C@@H](OC2CCCCC2)[C@@H](O)[C@@H]1O)C(=O)N(CCCl)N=O : does Therapeutic ratio TR equal or exceed 20?
## Result 0 (no)
